Data provenance is patent US20210196796A1.

experimental.system: T1, orthogonal hCD122 receptor (hoRb), hCD122 with H133D and Y134F (human, UniProt P14784 27-550)
T1 sequence: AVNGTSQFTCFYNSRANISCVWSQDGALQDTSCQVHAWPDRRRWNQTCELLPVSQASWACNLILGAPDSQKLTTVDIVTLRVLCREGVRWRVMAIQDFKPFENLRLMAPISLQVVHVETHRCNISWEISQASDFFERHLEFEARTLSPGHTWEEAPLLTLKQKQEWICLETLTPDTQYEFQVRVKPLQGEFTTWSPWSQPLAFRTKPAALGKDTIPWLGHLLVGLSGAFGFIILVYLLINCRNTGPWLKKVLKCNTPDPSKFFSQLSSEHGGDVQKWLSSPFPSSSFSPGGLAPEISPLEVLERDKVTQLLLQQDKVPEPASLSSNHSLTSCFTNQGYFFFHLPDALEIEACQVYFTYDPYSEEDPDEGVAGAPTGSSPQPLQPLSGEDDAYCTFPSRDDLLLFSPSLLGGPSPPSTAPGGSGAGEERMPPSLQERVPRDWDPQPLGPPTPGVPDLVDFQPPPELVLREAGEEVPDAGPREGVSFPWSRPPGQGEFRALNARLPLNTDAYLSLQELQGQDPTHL
assay.procedure: cell-based or functional assay
Measured 3F8 Ortho Proliferation Signal 1:50 of individual entries
measured.endpoint: 3F8 Ortho Proliferation Signal 1:50 (cts/min)

binder: ΔP2, SQVLKA (ligand) ATSSSTKKTQLQLSQLLVLLKAILNGINNYKNPKLTRMLTFKFYMPKKATELKHLQCLEEELKPLEEVLNLAQSKNFHLRPRDLISNINVIVLELKGSETTFMCEYADETATIVEFLNRWITFCQSIISTLT
measured.endpoint: 3F8 Ortho Proliferation Signal 1:50
observed.value: 12400
//
binder: ΔQ13, SQVLKA (ligand) APTSSSTKKTQLLSQLLVLLKAILNGINNYKNPKLTRMLTFKFYMPKKATELKHLQCLEEELKPLEEVLNLAQSKNFHLRPRDLISNINVIVLELKGSETTFMCEYADETATIVEFLNRWITFCQSIISTLT
measured.endpoint: 3F8 Ortho Proliferation Signal 1:50
observed.value: 12400
//
binder: L18V, SQVLKA (ligand) APTSSSTKKTQLQLSQLVVLLKAILNGINNYKNPKLTRMLTFKFYMPKKATELKHLQCLEEELKPLEEVLNLAQSKNFHLRPRDLISNINVIVLELKGSETTFMCEYADETATIVEFLNRWITFCQSIISTLT
measured.endpoint: 3F8 Ortho Proliferation Signal 1:50
observed.value: 9920
//
binder: M39V, SQVLKA (ligand) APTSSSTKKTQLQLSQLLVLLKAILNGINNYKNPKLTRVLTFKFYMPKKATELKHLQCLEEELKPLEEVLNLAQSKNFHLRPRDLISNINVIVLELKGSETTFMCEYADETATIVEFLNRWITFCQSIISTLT
measured.endpoint: 3F8 Ortho Proliferation Signal 1:50
observed.value: 9630
//
binder: Q126R, SQVLKA (ligand) APTSSSTKKTQLQLSQLLVLLKAILNGINNYKNPKLTRMLTFKFYMPKKATELKHLQCLEEELKPLEEVLNLAQSKNFHLRPRDLISNINVIVLELKGSETTFMCEYADETATIVEFLNRWITFCRSIISTLT
measured.endpoint: 3F8 Ortho Proliferation Signal 1:50
observed.value: 3710
//
binder: SQVLKS (ligand) APTSSSTKKTQLQLSQLLVLLKSILNGINNYKNPKLTRMLTFKFYMPKKATELKHLQCLEEELKPLEEVLNLAQSKNFHLRPRDLISNINVIVLELKGSETTFMCEYADETATIVEFLNRWITFCQSIISTLT
measured.endpoint: 3F8 Ortho Proliferation Signal 1:50
observed.value: 26600
//
binder: SQVLIA (ligand) APTSSSTKKTQLQLSQLLVLLIAILNGINNYKNPKLTRMLTFKFYMPKKATELKHLQCLEEELKPLEEVLNLAQSKNFHLRPRDLISNINVIVLELKGSETTFMCEYADETATIVEFLNRWITFCQSIISTLT
measured.endpoint: 3F8 Ortho Proliferation Signal 1:50
observed.value: 3500
